Form field: EC50 (one value per entry).
system: SUP-B15; test: Antiproliferative activity against human SUP-B15 cells after 72 hrs by CelTiter-Glo assay; assay type: functional, cell-based; conditions: SUP-B15, 72 h
Result Type: EC50

COC(=O)c1cc(=O)c2cc(NC(=O)N[C@@H](C)c3cccc(OC)c3)ccc2[nH]1; > 25.3 µM
O=c1c(-c2ccc(O)cc2)coc2cc(O)cc(O)c12 [GENISTEIN]; > 86.2 µM
COc1cc(OC)c2c(=O)cc(C(=O)Nc3cc(C(F)(F)F)ccc3Oc3ccccc3OC)[nH]c2c1; > 53.4 µM
COC(=O)c1cc(=O)c2cc(NC(=O)NCc3ccccc3)ccc2[nH]1; > 19.5 µM
COC(=O)c1cc(=O)c2cc(NC(=O)NCCc3cccs3)ccc2[nH]1; > 19.5 µM
COC(=O)c1cc(=O)c2cc(N)ccc2[nH]1; > 67.2 µM
COc1ccc(-c2cc(=O)c3c(OC)cc(OC)cc3n2S(=O)(=O)c2cc(F)c(F)c(F)c2)cc1; > 65.5 µM
COc1ccc(-c2cc(=O)c3c(OC)cc(OC)cc3n2S(=O)(=O)c2cccc([N+](=O)[O-])c2)cc1; > 39.7 µM
COC(=O)c1cc(=O)c2cc(NC(=O)Nc3cc(F)cc(C(F)(F)F)c3)ccc2[nH]1; > 40.2 µM
COc1ccc(-c2cc(=O)c3c(OC)cc(OC)cc3n2S(=O)(=O)c2ccc(Cl)cc2)cc1; > 34.5 µM
COc1cc(OC)c2c(=O)cc(C(=O)Nc3ccc(-n4cccc4)cc3)[nH]c2c1; > 77 µM
COc1ccc(-c2cc(=O)c3c(OC)cc(OC)cc3n2S(=O)(=O)Cc2ccccc2)cc1; > 34.5 µM

* * *

test system: HepG2; assay: Antiproliferative activity against human HepG2 cells after 72 hrs by CelTiter-Glo assay; format: functional, cell-based; details: HepG2, 72 h
pEC50: −log10 of the molar value.
Result Type: pEC50

COc1ccc(-c2cc(=O)c3c(OC)cc(OC)cc3n2S(=O)(=O)c2ccc([N+](=O)[O-])cc2)cc1; < 4.53
C=C(C)c1cccc(C(C)(C)NC(=O)Nc2ccc3[nH]c(C(=O)OC)cc(=O)c3c2)c1; < 4.94
COc1ccc(-c2cc(=O)c3c(OC)cc(OC)cc3n2S(=O)(=O)c2ccc(OC)cc2)cc1; < 4.08
COc1cc(OC)c2c(=O)cc(-c3ccc4c(c3)OCO4)[nH]c2c1; < 4.56
COC(=O)c1cc(=O)c2cc(NC(=O)Nc3ccc4c(c3)CCN4C)ccc2[nH]1; < 4.06
COc1ccc(-c2cc(=O)c3c(OC)cc(OC)cc3n2S(=O)(=O)c2ccc(F)cc2)cc1; < 4.18
COC(=O)c1cc(=O)c2c(OC)cc(OC)cc2n1S(=O)(=O)c1ccc(C)cc1; < 4.70
O=c1cc(-c2ccc(O)cc2)oc2c([C@@H]3O[C@H](CO)[C@@H](O)[C@H](O)[C@H]3O)c(O)cc(O)c12; < 4.36
COc1cc(OC)c2c(=O)cc(C(=O)Nc3ccccc3S(C)(=O)=O)[nH]c2c1; < 4.40
COc1cc(OC)c2c(=O)cc(C(=O)Nc3cc(C(F)(F)F)ccc3Oc3ccccc3OC)[nH]c2c1; 4.97
COc1ccc(-c2cc(=O)c3c(OC)cc(OC)cc3n2Cc2ccccc2)cc1; < 4.76
COC(=O)c1cc(=O)c2cc(NC(=O)Nc3ccc(F)c(Cl)c3)ccc2[nH]1; < 5.20
COc1ccc(-c2cc(=O)c3c(OC)cc(OC)cc3n2S(=O)(=O)c2cccc(Br)c2)cc1; < 4.23
CN1CC[C@H](c2c(O)cc(O)c3c(=O)cc(-c4ccccc4Cl)oc23)[C@H](O)C1; 6.83

* * *

system: SUP-B15; assay: Antiproliferative activity against human SUP-B15 cells after 72 hrs by CelTiter-Glo assay; assay type: functional, cell-based; conditions: SUP-B15, 72 h
pEC50: −log10 of the molar value.
Result Type: pEC50

COC(=O)c1cc(=O)c2cc(NC(=O)Nc3ccc(Cl)c(C(F)(F)F)c3)ccc2[nH]1; < 4.90
COc1ccc(Oc2ccc(C(F)(F)F)cc2NC(=O)c2cc(=O)c3c(OC)cc(OC)cc3[nH]2)cc1; < 4.17
COC(=O)c1cc(=O)c2c(OC)cc(OC)cc2n1C; < 4.42

* * *

In this section we review reported EC50 values for a set of compounds.
system: SUP-B15; assay: Antiproliferative activity against human SUP-B15 cells after 72 hrs by CelTiter-Glo assay; format: functional, cell-based; conditions: SUP-B15, 72 h
Result Type: EC50

COc1ccc(-c2cc(=O)c3c(OC)cc(OC)cc3n2S(=O)(=O)c2cccc(Br)c2)cc1; > 58.6 µM
COc1ccc(-c2cc(=O)c3c(OC)cc(OC)cc3n2S(=O)(=O)c2ccc(Br)s2)cc1; > 48.3 µM
COc1cc(OC)c2c(=O)cc(C(=O)Nc3cccc(-n4ccnc4)c3)[nH]c2c1; > 16.4 µM
COc1cc(OC)c2c(=O)cc(C(=O)Nc3ccc(N4CCOCC4)cc3)[nH]c2c1; > 36.8 µM
COc1ccc(-c2cc(=O)c3c(OC)cc(OC)cc3[nH]2)cc1; > 62.1 µM

* * *

Reported EC50 values follow for various compounds
tested on: BJ; experiment: Antiproliferative activity against human BJ cells after 72 hrs by CelTiter-Glo assay; assay type: cell-based
Result Type: EC50

COC(=O)c1cc(=O)c2cc(N)ccc2[nH]1; > 67.2 µM
CCOC(=O)[C@H](Cc1ccccc1)NC(=O)Nc1ccc2[nH]c(C(=O)OC)cc(=O)c2c1; > 27.6 µM
COc1cc(OC)c2c(=O)cc(C(=O)Nc3cccc(-c4nccs4)c3)[nH]c2c1; > 54 µM
C=CCNC(=O)Nc1ccc2c(c1)c(=O)cc(C(=O)OC)n2C(=O)NCC=C; 86.2 µM
COc1ccc(-c2cc(=O)c3c(OC)cc(OC)cc3[nH]2)cc1; > 62.1 µM
COc1cc(OC)c2c(=O)cc(C(=O)Nc3ccc(N4CCN(C)CC4)cc3)[nH]c2c1; > 19.8 µM
COc1ccc(-c2cc(=O)c3c(OC)cc(OC)cc3n2S(=O)(=O)c2cc(Cl)cc(Cl)c2O)cc1; > 37.9 µM
COc1ccc(-c2cc(=O)c3c(OC)cc(OC)cc3n2S(=O)(=O)c2cc(F)c(F)c(F)c2)cc1; > 65.5 µM
COc1cc(OC)c2c(=O)cc(C(=O)Nc3ccc(-n4cccc4)cc3)[nH]c2c1; > 77 µM
COC(=O)c1cc(=O)c2cc(NC(=O)Nc3ccc(F)c(Cl)c3)ccc2[nH]1; > 12.6 µM

* * *

test system: HepG2; test: Antiproliferative activity against human HepG2 cells after 72 hrs by CelTiter-Glo assay; assay type: functional, cell-based; conditions: HepG2, 72 h
pEC50: −log10 of the molar value.
pEC50 overview
Result Type: pEC50

COc1cc(OC)c2c(=O)cc(C(=O)N3CCN(C(=O)OC(C)(C)C)CC3)[nH]c2c1; 4.95
COc1ccc(-c2[nH]c3cc(OC)cc(OC)c3c(=O)c2I)cc1; < 4.06
COc1cc(OC)c2c(=O)cc(C(=O)Nc3ccc(Oc4ccc([N+](=O)[O-])cc4)cc3)[nH]c2c1; < 4.64
COc1ccc(-c2cc(=O)c3c(OC)cc(OC)cc3n2S(=O)(=O)c2ccc(C#N)cc2)cc1; < 4.76
COC(=O)c1cc(=O)c2cc(NC(=O)Nc3ccc(C(F)(F)F)cc3[N+](=O)[O-])ccc2[nH]1; < 4.59
CCOC(=O)[C@H](Cc1ccccc1)NC(=O)Nc1ccc2[nH]c(C(=O)OC)cc(=O)c2c1; < 4.86
COc1ccc(-c2cc(=O)c3c(OC)cc(OC)cc3n2S(=O)(=O)c2ccc(C)c([N+](=O)[O-])c2)cc1; < 4.29
COc1ccc(-c2cc(=O)c3c(OC)cc(OC)cc3n2S(=O)(=O)c2ccc(Br)cc2)cc1; 4.79
COc1ccc(-c2c(I)c(=O)c3c(OC)cc(OC)cc3n2S(=O)(=O)c2ccc(OC)cc2)cc1; < 4.76
COC(=O)c1cc(=O)c2cc(NC(=O)Nc3ccc(Cl)c(C(F)(F)F)c3)ccc2[nH]1; < 5.20
COC(=O)c1cc(=O)c2cc(NC(=O)NC3c4ccccc4-c4ccccc43)ccc2[nH]1; < 4.92
COC(=O)c1cc(=O)c2cc(NC(=O)Nc3cccc(C(C)=O)c3)ccc2[nH]1; < 5.09
COc1cc(OC)c2c(=O)cc(C(=O)Nc3cccc(-c4nccs4)c3)[nH]c2c1; < 4.27
COc1cc(OC)c2c(=O)cc(C(=O)Nc3cccc(N4CCCC4)c3)[nH]c2c1; < 4.23
COc1ccc(-c2c(Br)c(=O)c3c(OC)cc(OC)cc3n2S(=O)(=O)c2ccc(OC)cc2)cc1; < 4.70
